Each recorded value in this set is attributed to patent US20260193326A1.

Please respond with reported koff for every item in the list.
Target: AAV5 (adeno-associated virus serotype 5)
Experiment: SPR, AAV on CM5 chip
One number for each entry, in s⁻¹.

BINDER	UNITS_TEXT	NUMERIC_RESULT
A4-C6 (bispecific antibody) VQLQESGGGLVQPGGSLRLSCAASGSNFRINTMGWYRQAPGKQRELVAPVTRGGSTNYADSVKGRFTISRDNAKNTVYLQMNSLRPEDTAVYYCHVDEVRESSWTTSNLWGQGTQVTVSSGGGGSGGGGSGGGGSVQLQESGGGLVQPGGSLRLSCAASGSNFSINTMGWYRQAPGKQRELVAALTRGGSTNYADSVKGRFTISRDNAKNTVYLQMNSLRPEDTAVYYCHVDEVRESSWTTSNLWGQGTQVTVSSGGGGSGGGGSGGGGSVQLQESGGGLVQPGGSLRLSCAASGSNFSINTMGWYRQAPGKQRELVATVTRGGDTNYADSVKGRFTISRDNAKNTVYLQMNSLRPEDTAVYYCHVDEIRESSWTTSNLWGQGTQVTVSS	s⁻¹	0.000139
A4-B1 (VHH) VQLQESGGGLVQPGGSLRLSCAASGSIFSINLMGWYRQAPGKQRELVATITRGGNTNYAGSVKGRFTISRDNAKNTVYLQMNSLRPEDTAVYYCHVDEVRQSSWTTSNLWGQGTQVTVSSGGGGSGGGGSGGGGSVQLQESGGGLVQPGGSLRLSCAASGSIFSINLMGWYRQAPGKQRELVATITRGGNTNYAGSVKGRFTISRDNAKNTVYLQMNSLRPEDTAVYYCHVDEVRQSSWTTSNLWGQGTQVTVSS	s⁻¹	1.23e-05
A4-C1 (VHH) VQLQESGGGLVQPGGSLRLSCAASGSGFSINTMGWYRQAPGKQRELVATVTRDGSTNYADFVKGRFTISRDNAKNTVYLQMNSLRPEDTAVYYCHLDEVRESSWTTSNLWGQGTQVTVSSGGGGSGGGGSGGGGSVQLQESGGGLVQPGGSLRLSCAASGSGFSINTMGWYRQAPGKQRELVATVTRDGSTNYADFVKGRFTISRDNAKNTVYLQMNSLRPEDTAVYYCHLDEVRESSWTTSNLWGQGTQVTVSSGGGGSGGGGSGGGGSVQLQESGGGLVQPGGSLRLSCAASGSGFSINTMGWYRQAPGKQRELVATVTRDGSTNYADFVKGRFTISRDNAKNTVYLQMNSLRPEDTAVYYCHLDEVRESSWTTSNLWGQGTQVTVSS	s⁻¹	0.00138
A4-C2 (VHH) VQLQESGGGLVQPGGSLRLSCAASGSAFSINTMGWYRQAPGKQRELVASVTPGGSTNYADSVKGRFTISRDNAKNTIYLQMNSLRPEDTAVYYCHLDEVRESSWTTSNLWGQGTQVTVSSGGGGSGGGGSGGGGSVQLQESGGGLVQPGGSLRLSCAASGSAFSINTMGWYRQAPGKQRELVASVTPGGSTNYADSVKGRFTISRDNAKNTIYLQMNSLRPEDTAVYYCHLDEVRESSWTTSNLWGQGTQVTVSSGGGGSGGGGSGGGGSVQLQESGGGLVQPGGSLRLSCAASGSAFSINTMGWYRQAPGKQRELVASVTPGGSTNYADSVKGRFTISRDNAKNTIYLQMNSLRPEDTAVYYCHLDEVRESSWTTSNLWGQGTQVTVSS	s⁻¹	0.000134
A4-B2 (bispecific antibody) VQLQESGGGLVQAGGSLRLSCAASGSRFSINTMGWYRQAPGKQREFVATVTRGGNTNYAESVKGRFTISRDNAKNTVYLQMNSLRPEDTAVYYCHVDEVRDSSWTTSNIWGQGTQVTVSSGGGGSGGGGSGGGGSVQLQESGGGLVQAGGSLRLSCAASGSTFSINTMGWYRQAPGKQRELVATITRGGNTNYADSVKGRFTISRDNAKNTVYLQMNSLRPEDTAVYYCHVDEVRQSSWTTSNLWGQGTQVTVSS	s⁻¹	0.00117
A4-C4 (bispecific antibody) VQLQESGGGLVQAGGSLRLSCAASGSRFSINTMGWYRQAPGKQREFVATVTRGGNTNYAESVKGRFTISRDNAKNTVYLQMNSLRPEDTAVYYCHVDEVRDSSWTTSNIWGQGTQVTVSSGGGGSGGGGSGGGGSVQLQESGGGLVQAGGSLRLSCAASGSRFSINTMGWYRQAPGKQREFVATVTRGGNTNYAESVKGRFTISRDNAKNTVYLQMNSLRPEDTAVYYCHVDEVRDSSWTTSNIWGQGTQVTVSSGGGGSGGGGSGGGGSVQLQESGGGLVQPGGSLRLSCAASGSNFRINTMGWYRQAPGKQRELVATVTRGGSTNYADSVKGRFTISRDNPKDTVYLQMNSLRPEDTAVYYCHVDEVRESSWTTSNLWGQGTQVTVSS	s⁻¹	0.00121

Proceeding to the next binder to report its koff.
Give the measured koff of A4-C8 (bispecific antibody) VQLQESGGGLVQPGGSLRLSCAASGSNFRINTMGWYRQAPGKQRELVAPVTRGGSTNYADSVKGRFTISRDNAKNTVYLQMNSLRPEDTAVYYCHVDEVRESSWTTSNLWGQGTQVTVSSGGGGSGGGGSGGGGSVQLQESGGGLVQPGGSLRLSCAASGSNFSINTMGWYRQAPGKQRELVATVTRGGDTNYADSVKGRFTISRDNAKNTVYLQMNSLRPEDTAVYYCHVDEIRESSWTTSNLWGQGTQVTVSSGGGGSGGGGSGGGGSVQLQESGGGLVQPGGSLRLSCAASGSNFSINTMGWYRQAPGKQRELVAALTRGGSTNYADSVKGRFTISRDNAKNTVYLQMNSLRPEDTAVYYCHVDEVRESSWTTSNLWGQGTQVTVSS .
0.00013
